All values here come from ChEMBL document CHEMBL4014310.

- assaySummary: AUC in dog at 0.1 mg/kg, iv or 1 mg/kg, po
- Format: ADME, organism-based, Canis lupus familiaris
- measurementSetup: in vivo

[
  {
    "smilesText": "NS(=O)(=O)c1cncc(-c2nc(NCc3ccccn3)c3c(-c4ccccc4)cccc3n2)c1",
    "unitText": "µM·h",
    "AUC": 590
  }
]

====

- assaySummary: Oral bioavailability in cynomolgus monkey at 1 mg/kg
- Type: ADME, organism-based, Macaca fascicularis
- measurementSetup: in vivo
quantityMeasured: bioavailability (%)

[
  {
    "smilesText": "NS(=O)(=O)c1cncc(-c2nc(NCc3ccccn3)c3c(-c4ccccc4)cccc3n2)c1",
    "recordedValue": 100
  }
]

====

- assaySummary: Clearance in rat at 2 mg/kg, iv or 5 mg/kg, po
- Format: ADME, organism-based
- measurementSetup: in vivo

[
  {
    "smilesText": "NS(=O)(=O)c1cncc(-c2nc(NCc3ccccn3)c3c(-c4ccccc4)cccc3n2)c1",
    "unitText": "mL/min/kg",
    "clearance": 3.3
  }
]

====

- assaySummary: Plasma concentration in methoxamine-sensitised rabbit at 3 mg/kg, iv administered as 20 mins infusion
- Type: ADME, organism-based, Oryctolagus cuniculus

[
  {
    "smilesText": "NS(=O)(=O)c1cncc(-c2nc(NCc3ccccn3)c3c(-c4ccccc4)cccc3n2)c1",
    "concentration at 20 min": "3.6 µM"
  }
]

====

- assaySummary: Oral bioavailability in dog at 1 mg/kg
- Type: ADME, organism-based, Canis lupus familiaris
- measurementSetup: in vivo

[
  {
    "smilesText": "NS(=O)(=O)c1cncc(-c2nc(NCc3ccccn3)c3c(-c4ccccc4)cccc3n2)c1",
    "bioavailability [%]": 64
  }
]

====

- assaySummary: Volume of distribution at steady state in cynomolgus monkey at 1 mg/kg, iv or 1 mg/kg, po
- Assay type: ADME, organism-based, Macaca fascicularis
- measurementSetup: in vivo, read-out: Vdss

[
  {
    "smilesText": "NS(=O)(=O)c1cncc(-c2nc(NCc3ccccn3)c3c(-c4ccccc4)cccc3n2)c1",
    "unitText": "L/kg",
    "Vd": 1.2
  }
]

====

Listing of entries alongside the reported fraction unbound.
- assaySummary: Protein binding in rat plasma
- Format: ADME, cell-free
- measurementSetup: read-out: PPB

[
  {
    "smilesText": "CC(=O)Nc1cncc(-c2nc(NCc3ccccn3)c3c(-c4ccccc4)cccc3n2)c1",
    "fraction unbound": "< 0.005"
  },
  {
    "smilesText": "NC(=O)c1ccc(-c2cccc3nc(-c4cncnc4)nc(NCc4ccccn4)c23)cc1",
    "fraction unbound": "< 0.01"
  },
  {
    "smilesText": "CS(=O)(=O)Nc1cncc(-c2nc(NCc3ccccn3)c3c(-c4ccccc4)cccc3n2)c1",
    "fraction unbound": "< 0.005"
  },
  {
    "smilesText": "NC(=O)c1ccc(-c2nc(NCc3ccccn3)c3c(-c4ccccc4)cccc3n2)cn1",
    "fraction unbound": "< 0.01"
  },
  {
    "smilesText": "O=S(=O)(c1cccc(Nc2nc(-c3cncnc3)nc3cccc(-c4ccccc4)c23)c1)N1CCOCC1",
    "fraction unbound": "< 0.005"
  }
]

====

- assaySummary: Half life in cynomolgus monkey at 1 mg/kg, iv or 1 mg/kg, po
- Format: ADME, organism-based, Macaca fascicularis
- measurementSetup: in vivo

[
  {
    "molecule": "NS(=O)(=O)c1cncc(-c2nc(NCc3ccccn3)c3c(-c4ccccc4)cccc3n2)c1 [BMS-919373]",
    "unitText": "h",
    "half-life": 4.6
  }
]
